// provenance: patent US20120165319A1

assay: In vivo rat clearance assay; conditions: plasma, iv, 10-20 mg/kg
test.readout: clearance (mL/min/kg)
Please state the figure in mL/min/kg; there is no need to write the unit.

Known results for compounds:
| compound | clearance (mL/min/kg) |
| --- | --- |
| O=C[C@H](CC(=O)O)NC(=O)[C@@H]1CCCN2C(=O)CCN(NC(=O)c3ccccc3)C(=O)N12 [Compound 265] | 20 |
| CC(C)CC(=O)Nc1ccc(C(=O)N[C@H]2CCC(=O)N3CCC[C@@H](C(=O)N[C@H](C=O)CC(=O)O)N3C2=O)cc1 [Compound 487] | 20 |
| N#C[C@H](CC(=O)O)NC(=O)[C@@H]1CCCN2C(=O)CC[C@H](NC(=O)c3ccccc3)C(=O)N12 [Compound 232e] | 26 |

# evaluate next
clearance for O=C[C@H](CC(=O)O)NC(=O)[C@@H]1CCCN2C(=O)CC[C@H](NC(=O)c3cc4ccccc4[nH]3)C(=O)N12 [Compound 475] ? 21
